Test: Cmax in C57BL/6 mouse at 10 mg/kg, po by LC-MS/MS analysis
Assay type: ADME, organism-based
Set-up: dose 10 mg/kg, route oral
Measurement Conditions: in vivo
Result Type: Cmax (ng/mL)
Just the number in ng/mL, nothing appended.

The recorded Cmax for C=CC(=O)Nc1cc(Oc2nc(Nc3ccc(N4CCN(C)CC4)cc3OC)ccc2N2CCCCC2)ccc1C is 184

====

System Under Test: Dipeptidyl peptidase 1 (Homo sapiens, UniProt P53634)
Sequence (P53634 25-134 limits assumed): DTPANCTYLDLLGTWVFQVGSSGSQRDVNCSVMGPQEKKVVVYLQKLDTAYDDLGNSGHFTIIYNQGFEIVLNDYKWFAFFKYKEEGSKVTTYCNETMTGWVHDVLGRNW
Sequence (P53634 231-394 limits assumed): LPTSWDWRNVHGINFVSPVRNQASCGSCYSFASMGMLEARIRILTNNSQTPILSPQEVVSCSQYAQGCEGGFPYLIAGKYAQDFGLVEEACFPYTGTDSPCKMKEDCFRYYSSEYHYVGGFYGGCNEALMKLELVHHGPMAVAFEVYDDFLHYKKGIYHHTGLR
Sequence (P53634 395-463 limits assumed): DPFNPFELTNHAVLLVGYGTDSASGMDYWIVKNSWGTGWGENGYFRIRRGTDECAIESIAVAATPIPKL
Test: Inhibition of cathepsin C (unknown origin)
Result Type: IC50 (µM)
Just the number in µM, nothing appended.

                            smiles_notation  unit  value_reported
0  C=CC(=O)Nc1cccc(Oc2nc(Nc3ccc(N4CCN(C)CC4)cc3OC)ncc2Cl)c1    µM             2.1
1  C=CC(=O)Nc1cc2c(Nc3ccc(F)c(Cl)c3)ncnc2cc1OCCCN1CCOCC1    µM             2.7

Now for another entry.
Case C=CC(=O)Nc1cc(Nc2nccc(-c3cn(C)c4ccccc34)n2)c(OC)cc1N(C)CCN(C)C , Dipeptidyl peptidase 1 (Homo sapiens, UniProt P53634), IC50 recorded as 32.9
